The following are reported IC50 results, target or system SARS-CoV-2 Main Protease (SARS-CoV-2) (UniProt P0DTD1).
Response body: numeric value in µM, unit text excluded.

// query IC50 value for entry O=C(Nc1ccccc1)[C@@H](c1ccccc1)N1Cc2ccccc2C1=O (stereo in doubt)
99.8

// query IC50 value for entry Cc1ccncc1CC(=O)Nc1cccc(Cl)c1
26.4

// query IC50 value for entry COc1cccc(N2CCN(C(=O)c3cc(=O)[nH]c4ccccc34)CC2)c1
19.7

// query IC50 value for entry COc1ccc2c(N)nn(C(=O)C3CCOc4ccc(Cl)cc43)c2c1 (configuration not stated)
62.1

// query IC50 value for entry C=CC(=O)N(c1cc(C(C)(C)C)on1)C(C(=O)NCCc1cccc(F)c1)c1cccnc1 (configuration not stated)
10.9

// query IC50 value for entry O=C(NCc1ccc(Cl)cc1CN1CCN(C(=O)CCl)CC1)[C@@H]1CCCOC1 (stereo in doubt)
20.1

// query IC50 value for entry CNC(=O)Nc1ccc(N(Cc2ccsc2)C(=O)Cn2nnc3ccccc32)cc1
15.3

// query IC50 value for entry CS(=O)(=O)N1CCN(C(=O)CCl)CC1c1ccccc1 (configuration not stated)
3.31

// query IC50 value for entry CN(C)c1ccc(N(Cc2cscn2)C(=O)Cn2nnc3ccccc32)cc1
14.3

// query IC50 value for entry COCCc1ccc(Cl)cc1CN1CCN(C(=O)CCl)CC1
2.42

// query IC50 value for entry Nc1nn(C(=O)Cc2cccc(Cl)c2)c2ccc(F)cc12
94.2

// query IC50 value for entry O=C(Cc1cccc(Cl)c1)Nc1nnc2ccccn12
93.9

// query IC50 value for entry O=C(Nc1cncc2ccccc12)[C@H]1COc2ccc(Cl)cc2C1 (stereo in doubt)
37.7

// query IC50 value for entry O=C(Nc1cccnc1)[C@@H](c1ccccc1)N1Cc2ccccc2C1=O (stereo in doubt)
59.6

// query IC50 value for entry O=C(c1cc(=O)[nH]c2ccccc12)N1CCN(c2ccccc2)CC1
10.4

// query IC50 value for entry COc1ccc(C2CC(c3cccs3)=NN2C(=O)CCl)cc1OC (configuration not stated)
0.969

// query IC50 value for entry Cc1cccc(CC2CCN(C(=O)CCl)CC2)c1
4.49

// query IC50 value for entry COC(=O)C(C(=O)Nc1cnccc1C)c1cccc(Cl)c1 (configuration not stated)
17.1

// query IC50 value for entry O=C(Cc1cccc(Cl)c1)Nn1cnc2ccccc21
4.27

// query IC50 value for entry C=CC(=O)N(c1cc(C(C)(C)C)on1)C(C(=O)NCCc1cccc(F)c1)c1cncc(Cl)c1 (configuration not stated)
4.78

// query IC50 value for entry O=C(Cc1cncc2ccccc12)N1CCOc2ccc(Cl)cc21
3.66

// query IC50 value for entry Cc1ccncc1NC(=O)Cc1cc(Cl)cc(NC2CC2C(F)(F)F)c1 (configuration not stated)
19.7

* * *

Consider the following compounds; for each one, report its inhibition.
# systemUnderTest: SARS-CoV-2 Main Protease (SARS-CoV-2)
# measurementSetup: 20.0 µM
Response body: numeric value in %, unit text excluded.

// query inhibition value for entry Sc1nc2ccccc2c2nc(CCc3ccccc3)nn12
-0.837

// query inhibition value for entry Cc1ccncc1-c1nnc(-c2cccc(Cl)c2)o1
1.73

// query inhibition value for entry O=C(NCCNc1ccnc2cc(Cl)ccc12)Nc1ccc(F)cc1
20.4

// query inhibition value for entry OC[C@@]1(F)CCN(c2nc(-c3cccnc3)nc3sc4c(c23)CCC4)C1 (stereo in doubt)
1.46

// query inhibition value for entry Nc1nnnn1-c1cccc(C(=O)Nc2c(-c3cccnc3)nc3ccccn23)c1
-2.5

// query inhibition value for entry O=C(Cc1cccc(Cl)c1)Nc1cnccn1
3.71

// query inhibition value for entry CN(CC1COc2ccccc2O1)C(=O)c1cc(=O)[nH]c2ccc(F)cc12 (stereo unspecified)
-4.21

// query inhibition value for entry CN(C(=O)Cc1noc2ccccc12)c1ccc(NC(=O)OC(C)(C)C)cc1
-14.5

// query inhibition value for entry CC(=O)Nc1ccc(C#N)cc1CN1CCN(C(=O)CCl)CC1
20.6

// query inhibition value for entry O=C(c1cc(=O)[nH]c2ccc(F)cc12)N1CCN(S(=O)(=O)c2ccccc2)CC1
3.84

// query inhibition value for entry Cc1nn(C(C)C)c(C)c1CC(=O)Nc1nncn1C1CC1
-5.19
